# System: 282377-053-R-J1-PDC complex spheroid viability;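 further: spheroids exposed to compounds for seven days; 100% = DMSO vehicle control viability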
# measurement_protocol: Anticancer human tumor 282377-053-R-J1-PDC patient-derived colon adenocarcinoma cell line growth inhibition [POLQ]
# condition_label: second compound 0.0316 µM; first compound 3.16 µM; stronger effect = lower value

compound	viability, T/C, %
C=CC(=O)N1CCN(c2nc(=O)n(-c3c(C)ccnc3C(C)C)c3nc(-c4c(O)cccc4F)c(F)cc23)C(C)C1 (stereo not given) + Cc1cccc(N(C)C(=O)C2C(O)CCN2c2nc(C)cc(C(F)(F)F)c2C#N)c1	97.3
COc1cc2cc(C(=O)CCC(=O)O)sc2cc1OC + Cc1cccc(N(C)C(=O)C2C(O)CCN2c2nc(C)cc(C(F)(F)F)c2C#N)c1	109
Nc1ccn(C2OC(CO)C(O)C2(F)F)c(=O)n1 (stereo not given) + COC1C(OC(N)=O)C(O)C(Oc2ccc3c(O)c(NC(=O)c4ccc(O)c(CC=C(C)C)c4)c(=O)oc3c2C)OC1(C)C	22.7
Nc1ccn(C2OC(CO)C(O)C2(F)F)c(=O)n1 (stereo not given) + Nc1ccc(C#CCN(C(=O)Cc2ncc(C(F)(F)F)cc2C(F)(F)F)c2ccc(F)cc2)nn1	84.4
O=C(Nc1ccc(O)c(NS(=O)(=O)c2ccc(F)cc2)c1)c1ccc(-c2ccccc2)cc1 + COC1C(OC(N)=O)C(O)C(Oc2ccc3c(O)c(NC(=O)c4ccc(O)c(CC=C(C)C)c4)c(=O)oc3c2C)OC1(C)C	133
